We begin with a simple list: items and their reported Diameter of clearing zone, S. aureus.
# Test system: Staphylococcus aureus (KACC 10768, ATCC 25923)
# test details: Radial diffusion assay, S. aureus
# Type: cell-based
# measurement context: peptide 200 μg/mL, 5 μL per 3-mm well, 3 h diffusion then 12 h at 37 °C, mean of tests repeated three times

Look over these answered cases.
KLSNAVFKSCRKI * [Ph 24, synthetic peptide predicted as novel AMP from the P. hilaris transcriptome]
65 Units (1 mm = 10 Units)
KRIFYLYIRGQ * [Ph 22, synthetic peptide predicted as novel AMP from the P. hilaris transcriptome]
95 Units (1 mm = 10 Units)
KRGYQVPRIAFII * [Ph 3, synthetic peptide predicted as novel AMP from the P. hilaris transcriptome]
85 Units (1 mm = 10 Units)
KIGTFIKKLSYTS * [Ph 26, synthetic peptide predicted as novel AMP from the P. hilaris transcriptome]
75 Units (1 mm = 10 Units)
KMFTKCIRYRKM * [Ph 20, synthetic peptide predicted as novel AMP from the P. hilaris transcriptome]
85 Units (1 mm = 10 Units)

stdin: Check the records and state Diameter of clearing zone, S. aureus for KLQVVPAIHLVWLQK * [Ph 4, synthetic peptide predicted as novel AMP from the P. hilaris transcriptome]
stdout: 80 Units (1 mm = 10 Units)

stdin: Check the records and state Diameter of clearing zone, S. aureus for RISCVAMRLILK * [Ph 10, synthetic peptide predicted as novel AMP from the P. hilaris transcriptome]
stdout: 72 Units (1 mm = 10 Units)

stdin: Check the records and state Diameter of clearing zone, S. aureus for RRRCRCCRY * [Ph 14, synthetic peptide predicted as novel AMP from the P. hilaris transcriptome]
stdout: 70 Units (1 mm = 10 Units)

---

We begin with a simple list: items and their reported Diameter of clearing zone, S. aureus.
# Test system: Staphylococcus aureus (KACC 10768, ATCC 25923)
# test details: Radial diffusion assay, S. aureus
# Assay type: cell-based
# measurement context: peptide 200 μg/mL, 5 μL per 3-mm well, 3 h diffusion then 12 h at 37 °C, mean of tests repeated three times

Look over these answered cases.
RKSWRHWKC * [Ph 16, synthetic peptide predicted as novel AMP from the P. hilaris transcriptome]
87 Units (1 mm = 10 Units)
RCLKTCFLSFIRY * [Ph 8, synthetic peptide predicted as novel AMP from the P. hilaris transcriptome]
83 Units (1 mm = 10 Units)
KLPIVNVKLVNRIK * [Ph 2, synthetic peptide predicted as novel AMP from the P. hilaris transcriptome]
90 Units (1 mm = 10 Units)

stdin: Check the records and state Diameter of clearing zone, S. aureus for RAIKWPGNGLLFLKY * [Ph 1, synthetic peptide predicted as novel AMP from the P. hilaris transcriptome]
stdout: 86 Units (1 mm = 10 Units)

stdin: Check the records and state Diameter of clearing zone, S. aureus for RLLLLCYACGKS * [Ph 12, synthetic peptide predicted as novel AMP from the P. hilaris transcriptome]
stdout: 75 Units (1 mm = 10 Units)

Cited source: paper PMC7601695
